# System: Disintegrin and metalloproteinase domain-containing protein 17 (Homo sapiens)
# Experiment: inhibition of ADAM17 peptide cleavage – biochemical, QFRET, primary screen (AID 720648);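 also: 0% = DMSO-only wells as the low control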
# Condition Summary: recombinant ADAM17, EDANS/DABCYL FRET peptide cleavage; at 6.95 µM; stronger effect = higher value
Among all 370,000 compounds or so, about 3,100 (0.84%) were called active. For the sample, actives were picked, then their nearest neighbours and some compounds at random.
Please respond with reported inhibition for every item in the list.
Answers are plain numbers, in %.

Cc1cc(C)nc(NC(=S)N2CCN(c3ccc(C(F)(F)F)cn3)CC2)c1 : -0.9
C=C(C)C#CC(Cc1ccccc1)N(CC1CC1)/C(N)=N/C(=O)OCc1ccccc1 (stereo not given) : -26.4
CN(C(=O)c1cccc(NC(=O)Cc2cccc([N+](=O)[O-])c2)c1)C1CCCCC1 : 10.3
COc1ccnc(C(=O)N2CCC(Oc3cccnc3)CC2)c1 : 1.66
Cc1cc(NC(=O)CN2C(=O)NC(CC(C)C)C2=O)no1 (stereo not given) : 10.8

Working through the 2 compounds below one at a time, give inhibition for each.
1. CCN1C(=O)C(CC(=O)Nc2cc(C)ccc2C)SC1=Nc1ccc(S(N)(=O)=O)cc1 (stereo not given)
2. CC(CCN1CCC(C(O)(c2ccccc2)c2ccccc2)CC1)Oc1ccc([N+](=O)[O-])cc1Cl (stereo not given)

result:
1. 9.07
2. 6.8

====

# System: Disintegrin and metalloproteinase domain-containing protein 17 (Homo sapiens) (UniProt P78536)
# Sequence (P78536 215-824 limits assumed): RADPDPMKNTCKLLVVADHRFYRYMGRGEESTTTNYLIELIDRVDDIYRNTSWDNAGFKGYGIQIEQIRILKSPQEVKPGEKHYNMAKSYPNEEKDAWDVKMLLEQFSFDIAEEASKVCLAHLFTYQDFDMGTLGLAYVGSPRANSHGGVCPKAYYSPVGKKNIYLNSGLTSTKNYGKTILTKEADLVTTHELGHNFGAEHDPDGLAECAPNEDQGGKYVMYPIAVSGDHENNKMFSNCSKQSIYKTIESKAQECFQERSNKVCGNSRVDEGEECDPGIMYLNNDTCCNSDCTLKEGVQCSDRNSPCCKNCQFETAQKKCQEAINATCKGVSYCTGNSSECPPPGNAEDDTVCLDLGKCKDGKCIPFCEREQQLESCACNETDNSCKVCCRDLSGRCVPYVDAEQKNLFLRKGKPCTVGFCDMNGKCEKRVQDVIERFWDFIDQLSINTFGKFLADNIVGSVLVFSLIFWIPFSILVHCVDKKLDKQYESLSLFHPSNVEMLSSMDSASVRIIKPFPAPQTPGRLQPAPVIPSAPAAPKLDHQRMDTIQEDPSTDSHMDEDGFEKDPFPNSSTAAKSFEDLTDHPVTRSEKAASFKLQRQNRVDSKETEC
# Experiment: inhibition of ADAM17 peptide cleavage – biochemical, QFRET, primary screen (AID 720648);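 also: 0% = DMSO-only wells as the low control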
# Condition Summary: recombinant ADAM17, EDANS/DABCYL FRET peptide cleavage; at 6.95 µM; stronger effect = higher value
Hit rate of the full screen: of about 370,000 compounds, about 3,100 (0.84%) were called active. Many of the other results were omitted from the sample, so actives are more common in it than they were.
Please respond with reported inhibition for every item in the list.
Numbers only, in %.

Cc1ccc(S(=O)(=O)c2c(COC(=O)c3cccc(Cl)c3)c(-c3ccccc3)nn2C)cc1 : -0.5
O=C(CSc1nnc(Nc2ccccc2)s1)Nc1cccnc1Cl : 8.69
O=C(CSc1nnc(C2CC2)n1Cc1ccccc1)Nc1cccnc1Cl : -2.91
CCCCNC(=O)C[C@H]1C(=O)N(Cc2ccc(OC)cc2)C2=CCCC[C@@]21C(=O)OCC : -4.97
O=C1/C(=C\c2ccsc2)NC(=S)N1c1ccccc1 : 9.7

Working through the 4 compounds below one at a time, give inhibition for each.
1. Cc1ccc(S(=O)(=O)N2CCN(C(=O)COC(=O)c3c(C)cc(C)cc3C)CC2)c(C)c1
2. O=C(OCC(=O)N1CCN(C(=O)c2ccco2)CC1)c1cccc(O)c1
3. O=C(CSc1nnc(Nc2ccccc2F)s1)NC1CCCC1
4. O=C(OCc1ccc(-c2ccccc2)cc1)c1cccc(O)c1

result:
1. 19.5
2. -3.62
3. -2.83
4. 9.14

Working through the 2 compounds below one at a time, give inhibition for each.
1. COc1ccc(CSc2nnc(-c3cccc(C)c3)n2C)cc1
2. COc1cc(/C=C/C(=O)n2cnc3ccccc32)cc(OC)c1OC

result:
-0.21
-11.9

====

# System: Disintegrin and metalloproteinase domain-containing protein 17 (Homo sapiens)
# Experiment: inhibition of ADAM17 peptide cleavage – biochemical, QFRET, primary screen (AID 720648);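 also: 0% = DMSO-only wells as the low control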
# Condition Summary: recombinant ADAM17, EDANS/DABCYL FRET peptide cleavage; at 6.95 µM; stronger effect = higher value
The campaign covered roughly 370,000 compounds. About 3,100 (0.84%) were called active. The sample as a whole holds a higher share of actives than the screen did.
Quantity Kind: inhibition (%)
Answers are plain numbers, in %.

CCOC(=O)[C@]12CCCC3=C1N(CCC3)C(=O)[C@@H](CC(=O)NCc1cccs1)C2 : 0.06
Clc1ccc(-n2c(SC/C=C/c3ccccc3)nnc2-c2ccco2)cc1 : 8.36

Working through the 3 compounds below one at a time, give inhibition for each.
1. CCOc1c(Br)cc(/C=C2\C(=O)N(CCC#N)N=C2C)cc1OC
2. CCOC(=O)[C@]12CCCC=C1N(Cc1ccc(OC)cc1)C(=O)[C@@H]2CC(=O)NCc1cccs1
3. COC(=O)C12C=C3CC(c4ccccc4)=C3C(=O)N1Cc1[nH]c3ccccc3c1C2 (stereo not given)

result:
8.65
-2.4
-5.87
